- condition notes: in n-butanol, 293.25 K
measured attribute: solubility (mole fraction)
Would you mind answering with just the numeric figure?

Q. Give me measured solubility (mole fraction), please, for this compound: `Cl.N=C(N)Nc1ccc(C(=O)O)cc1`
A. 0.00103

----------
- condition notes: in methanol, 297.95 K
measured attribute: solubility (mole fraction)
When you answer, write just the number.

Q. Provide one value: measured solubility (mole fraction) of `Cl.N=C(N)Nc1ccc(C(=O)O)cc1`
A. 0.0118

----------
- condition notes: in n-propanol, 322.85 K
measured attribute: solubility (mole fraction)

Q. Give solubility (mole fraction) for `Cl.N=C(N)Nc1ccc(C(=O)O)cc1`
A. 0.00753

----------
- condition notes: in methanol, 317.45 K
measured attribute: solubility (mole fraction)
Answer with the value's number alone.

Q. Hello, please tell me recorded solubility (mole fraction) for this one: `Cl.N=C(N)Nc1ccc(C(=O)O)cc1`
A. 0.017

----------
- condition notes: in isopropanol, 296.35 K
measured attribute: solubility (mole fraction)
Form: value (number only, do not type unit).

Q. Determine its reported solubility (mole fraction): `Cl.N=C(N)Nc1ccc(C(=O)O)cc1`
A. 0.0008

----------
- condition notes: in n-butanol, 303.15 K
measured attribute: solubility (mole fraction)
Hey, just send me the number, nothing else.

Q. Consider the compound `Cl.N=C(N)Nc1ccc(C(=O)O)cc1` and give its recorded solubility (mole fraction).
A. 0.00149

----------
- condition notes: in n-pentanol, 322.95 K
measured attribute: solubility (mole fraction)
Reply: number alone, nothing else.

Q. Identify measured solubility (mole fraction) corresponding to `Cl.N=C(N)Nc1ccc(C(=O)O)cc1`
A. 0.00114

----------
- condition notes: in n-butanol, 314.75 K
measured attribute: solubility (mole fraction)
Form: value (number only, do not type unit).

Q. Supply reported solubility (mole fraction) belonging to this compound: `Cl.N=C(N)Nc1ccc(C(=O)O)cc1`
A. 0.00182

----------
- condition notes: in water, 304.55 K
measured attribute: solubility (mole fraction)
I'd appreciate a reply containing only the number, no unit.

Q. Query solubility (mole fraction) for `Cl.N=C(N)Nc1ccc(C(=O)O)cc1`
A. 0.00685

----------
- condition notes: in n-propanol, 295.05 K
measured attribute: solubility (mole fraction)
Provide a numeric answer; units are not to be included.

Q. For the compound `Cl.N=C(N)Nc1ccc(C(=O)O)cc1` , give its measured solubility (mole fraction) value.
A. 0.00368

----------
- condition notes: in n-pentanol, 316.75 K
measured attribute: solubility (mole fraction)

Q. # return recorded solubility (mole fraction) for entry `Cl.N=C(N)Nc1ccc(C(=O)O)cc1`
A. 0.00103

----------
- condition notes: in water, 328.85 K
measured attribute: solubility (mole fraction)
Would you mind answering with just the numeric figure?

Q. Let me know recorded solubility (mole fraction) for `Cl.N=C(N)Nc1ccc(C(=O)O)cc1` , thanks.
A. 0.018

----------
- condition notes: in water, 318.55 K
measured attribute: solubility (mole fraction)
Lab note: write the figure by itself, no unit.

Q. State its solubility (mole fraction): `Cl.N=C(N)Nc1ccc(C(=O)O)cc1`
A. 0.0129

----------
- condition notes: in water, 314.85 K
measured attribute: solubility (mole fraction)
Number only, please.

Q. Supply reported solubility (mole fraction) belonging to this compound: `Cl.N=C(N)Nc1ccc(C(=O)O)cc1`
A. 0.0108

----------
- condition notes: in water, 298.05 K
measured attribute: solubility (mole fraction)
Please give only the number in your answer, with no unit.

Q. // fetch solubility (mole fraction) given entry `Cl.N=C(N)Nc1ccc(C(=O)O)cc1`
A. 0.00532

----------
- condition notes: in n-propanol, 319.35 K
measured attribute: solubility (mole fraction)
Answer as a number with no unit attached.

Q. Using known records, supply solubility (mole fraction) for `Cl.N=C(N)Nc1ccc(C(=O)O)cc1`
A. 0.00716

----------
- condition notes: in methanol, 307.45 K
measured attribute: solubility (mole fraction)
// keep it numeric: no unit symbol after the value

Q. Give the measured solubility (mole fraction) for `Cl.N=C(N)Nc1ccc(C(=O)O)cc1`
A. 0.0143

----------
- condition notes: in ethanol, 310.25 K
measured attribute: solubility (mole fraction)
When you answer, write just the number.

Q. Please give measured solubility (mole fraction) of the following entry: `Cl.N=C(N)Nc1ccc(C(=O)O)cc1`
A. 0.00387

----------
- condition notes: in n-propanol, 309.95 K
measured attribute: solubility (mole fraction)
Output spec: single numeric token, no unit.

Q. Consider the compound `Cl.N=C(N)Nc1ccc(C(=O)O)cc1` . State its measured solubility (mole fraction).
A. 0.00564

----------
- condition notes: in methanol, 312.95 K
measured attribute: solubility (mole fraction)
Output spec: single numeric token, no unit.

Q. Quickly give me recorded solubility (mole fraction) for `Cl.N=C(N)Nc1ccc(C(=O)O)cc1`
A. 0.0155

----------
- condition notes: in isopropanol, 307.55 K
measured attribute: solubility (mole fraction)
Give the figure only, with no unit attached.

Q. Give solubility (mole fraction) for the following compound: `Cl.N=C(N)Nc1ccc(C(=O)O)cc1`
A. 0.00127

----------
- condition notes: in n-butanol, 327.15 K
measured attribute: solubility (mole fraction)

Q. Tell me measured solubility (mole fraction) for `Cl.N=C(N)Nc1ccc(C(=O)O)cc1` please.
A. 0.00216

----------
- condition notes: in methanol, 328.55 K
measured attribute: solubility (mole fraction)
Hey, just send me the number, nothing else.

Q. Note solubility (mole fraction) for the molecule shown: `Cl.N=C(N)Nc1ccc(C(=O)O)cc1`
A. 0.0203

----------
- condition notes: in n-propanol, 314.55 K
measured attribute: solubility (mole fraction)
Reply with just the number.

Q. Specify measured solubility (mole fraction) for `Cl.N=C(N)Nc1ccc(C(=O)O)cc1` .
A. 0.00633

----------
- condition notes: in n-butanol, 296.85 K
measured attribute: solubility (mole fraction)

Q. Identify measured solubility (mole fraction) associated with `Cl.N=C(N)Nc1ccc(C(=O)O)cc1`
A. 0.00124

----------
- condition notes: in isopropanol, 312.95 K
measured attribute: solubility (mole fraction)
Lab note: write the figure by itself, no unit.

Q. Please look at this compound and report its solubility (mole fraction): `Cl.N=C(N)Nc1ccc(C(=O)O)cc1`
A. 0.00149

----------
- condition notes: in methanol, 321.25 K
measured attribute: solubility (mole fraction)
Reply briefly: the number, and no unit.

Q. Identify measured solubility (mole fraction) associated with `Cl.N=C(N)Nc1ccc(C(=O)O)cc1`
A. 0.0181

----------
- condition notes: in ethanol, 294.95 K
measured attribute: solubility (mole fraction)
Give the figure by itself; no unit, no explanation.

Q. Tell me solubility (mole fraction) reported for `Cl.N=C(N)Nc1ccc(C(=O)O)cc1`
A. 0.00291

----------
- condition notes: in isopropanol, 301.75 K
measured attribute: solubility (mole fraction)
// no unit string in output, number only

Q. Assign solubility (mole fraction) to the following record: `Cl.N=C(N)Nc1ccc(C(=O)O)cc1`
A. 0.00106

----------
- condition notes: in water, 323.55 K
measured attribute: solubility (mole fraction)

Q. Please supply the value of reported solubility (mole fraction) for the item `Cl.N=C(N)Nc1ccc(C(=O)O)cc1`
A. 0.0155

----------
- condition notes: in isopropanol, 321.35 K
measured attribute: solubility (mole fraction)
Please respond with just the number, no unit label.

Q. Please supply the value of reported solubility (mole fraction) for the item `Cl.N=C(N)Nc1ccc(C(=O)O)cc1`
A. 0.0017

----------
- condition notes: in methanol, 302.45 K
measured attribute: solubility (mole fraction)
Response field accepts a number only; no unit should be typed.

Q. Supply recorded solubility (mole fraction) for `Cl.N=C(N)Nc1ccc(C(=O)O)cc1` here.
A. 0.0128

----------
- condition notes: in n-pentanol, 292.05 K
measured attribute: solubility (mole fraction)
No unit in the answer, only the number.

Q. Identify measured solubility (mole fraction) associated with `Cl.N=C(N)Nc1ccc(C(=O)O)cc1`
A. 0.00042

----------
- condition notes: in ethanol, 325.55 K
measured attribute: solubility (mole fraction)
Respond with the number and no other words.

Q. Assign solubility (mole fraction) to the following record: `Cl.N=C(N)Nc1ccc(C(=O)O)cc1`
A. 0.00514

----------
- condition notes: in n-pentanol, 327.95 K
measured attribute: solubility (mole fraction)
// keep it numeric: no unit symbol after the value

Q. Supply solubility (mole fraction) value. Item: `Cl.N=C(N)Nc1ccc(C(=O)O)cc1`
A. 0.00121

----------
- condition notes: in ethanol, 315.25 K
measured attribute: solubility (mole fraction)
Answer as a number with no unit attached.

Q. Given `Cl.N=C(N)Nc1ccc(C(=O)O)cc1` , respond with its solubility (mole fraction).
A. 0.0042

----------
- condition notes: in isopropanol, 325.15 K
measured attribute: solubility (mole fraction)
# respond with the number and nothing more

Q. Give the reported solubility (mole fraction) for this compound. `Cl.N=C(N)Nc1ccc(C(=O)O)cc1`
A. 0.00186

----------
- condition notes: in n-propanol, 300.75 K
measured attribute: solubility (mole fraction)
The answer should be written as a number, with no unit following it.

Q. Assign solubility (mole fraction) to the following record: `Cl.N=C(N)Nc1ccc(C(=O)O)cc1`
A. 0.00436
